Assignment: determine reported activation (% of control) for the given molecules.
# test_name: IL-6 driven STAT3 reporter potentiators, primary screen, U3A cells, luciferase, luminescence, MLSCN library (AID 871);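 also: 0% = background luminescence of wells with medium and substrate only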
# stated_conditions: IL-6 STAT3-luciferase reporter, at 5.6 µM, active compounds read high
Hit rate of the full screen: of about 190,000 compounds, about 1,800 (0.95%) were called active. The sample as a whole holds a higher share of actives than the screen did.

Asked: Note down activation (% of control) recorded for N#CC1=C(N)Oc2c(c(=O)oc3ccccc23)C1c1ccccc1OC(=O)c1cccs1 (configuration not stated)
Given back: 106% (inactive)

Asked: Note down activation (% of control) recorded for `CCOP(=S)(OCC)SCOC(=O)NCC(=O)OC`
Given back: 106% (inactive)

Asked: Note down activation (% of control) recorded for `COc1cc(-n2c(=S)[nH]c3ccc(C)cc3c2=O)c(Cl)cc1Cl`
Given back: 156% (active)

Asked: Note down activation (% of control) recorded for `CCOCCc1c(O)[nH]c(=S)[nH]c1=O`
Given back: 99.3% (inactive)

Asked: Note down activation (% of control) recorded for `CC(=O)c1c(C)n(C(C)C)c2ccc(O)cc12`
Given back: 102% (inactive)

Asked: Note down activation (% of control) recorded for `CCC/C(=N\O)c1c[nH]c2ccccc12`
Given back: 153% (active)

Asked: Note down activation (% of control) recorded for `CCOc1ccc(CN(CCCl)CCCl)cc1C(=O)OC`
Given back: 96.4% (inactive)

These data points were gathered from PubChem BioAssay AID871.
